assay-text: Cytotoxicity against Homo sapiens (human) HeLa cells
Type: cell-based
measurement-kind: MCC

// recorded MCC for Nc1ncnc2c1ncn2C[C@H](O)CO [(S)-DHPA] : > 500 µg/mL

// recorded MCC for NC(=O)c1ncn([C@@H]2O[C@H](CO)[C@@H](O)[C@H]2O)n1 : > 500 µg/mL

// recorded MCC for O=C1/C(=N\c2ccc(Cc3ccc(/N=C4\C(=O)N(Cc5ccccc5)c5ccccc54)cc3)cc2)c2ccccc2N1Cc1ccccc1 : 200 µg/mL

// recorded MCC for O=C1Nc2ccc(F)cc2/C1=N/c1ccc(Cc2ccc(/N=C3\C(=O)Nc4ccc(F)cc43)cc2)cc1 : 80 µg/mL

The record that follows has no MCC shown yet.
// recorded MCC for Cc1c(/N=C2/C(=O)Nc3ccccc32)cccc1/N=C1/C(=O)Nc2ccccc21 : ≥ 400 µg/mL

====

assay-text: Cytotoxicity against Homo sapiens (human) HeLa cells
Type: cell-based
measurement-kind: MCC (µg/mL)
Answers are plain numbers, in µg/mL.

// recorded MCC for O=C1/C(=N\c2ccc(Oc3ccc(/N=C4\C(=O)N(Cc5ccccc5)c5ccccc54)cc3)cc2)c2ccccc2N1Cc1ccccc1 : 80

// recorded MCC for O=C1Nc2ccc(F)cc2/C1=N\c1cccc(Cc2cccc(/N=C3/C(=O)Nc4ccc(F)cc43)c2)c1 : 80

// recorded MCC for O=c1[nH]c(=O)n([C@H]2C[C@H](O)[C@@H](CO)O2)cc1/C=C/Br : 500

// recorded MCC for O=C1Nc2ccccc2/C1=N/c1ccc(C(=O)c2ccc(/N=C3\C(=O)Nc4ccccc43)cc2)cc1 : 80

// recorded MCC for O=C1/C(=N/c2cccc(Cc3cccc(/N=C4/C(=O)N(Cc5ccccc5)c5ccccc54)c3)c2)c2ccccc2N1Cc1ccccc1 : 200

The record that follows has no MCC shown yet.
// recorded MCC for CCc1ccc2c(c1)/C(=N/c1c(CC)cc(Cc3cc(CC)c(/N=C4\C(=O)N(CC)c5ccc(CC)cc54)c(CC)c3Cl)c(Cl)c1CC)C(=O)N2CC : 16

====

Hi there, I'd appreciate the recorded MCC for every entry that follows.
assay-text: Cytotoxicity against Chlorocebus aethiops (African green monkey) Vero cells
Type: cell-based
measurement-conditions: chlorocebus sabaeus
Answers are plain numbers, in µg/mL.

// recorded MCC for O=C1Nc2ccc(F)cc2/C1=N\c1cccc(Cc2cccc(/N=C3/C(=O)Nc4ccc(F)cc43)c2)c1 : 80

// recorded MCC for O=C1Nc2ccccc2/C1=N\c1ccc(Cc2cccc(/N=C3/C(=O)Nc4ccccc43)c2)cc1 : 80

// recorded MCC for O=C1/C(=N\c2ccc(Oc3ccc(/N=C4\C(=O)N(Cc5ccccc5)c5ccccc54)cc3)cc2)c2ccccc2N1Cc1ccccc1 : 80

// recorded MCC for O=C1Nc2ccc(F)cc2/C1=N/c1ccc(Oc2ccc(/N=C3\C(=O)Nc4ccc(F)cc43)cc2)cc1 : 40

// recorded MCC for O=C1/C(=N/c2cccc(Cc3cccc(/N=C4/C(=O)N(Cc5ccccc5)c5ccccc54)c3)c2)c2ccccc2N1Cc1ccccc1 : 200

The record that follows has no MCC shown yet.
// recorded MCC for O=C1/C(=N\c2ccc(Cc3ccc(/N=C4\C(=O)N(Cc5ccccc5)c5ccccc54)cc3)cc2)c2ccccc2N1Cc1ccccc1 : 40

====

assay-text: Cytotoxicity against Chlorocebus aethiops (African green monkey) Vero cells
Assay type: cell-based
measurement-conditions: chlorocebus sabaeus
Hi there, I'd appreciate the recorded MCC for every entry that follows.
One number for each entry, in µg/mL.

Check out these entries, answers already filled in.
// recorded MCC for Nc1ncnc2c1ncn2C[C@H](O)CO [(S)-DHPA] : 500

// recorded MCC for O=C1Nc2ccccc2/C1=N\c1ccc(Oc2cccc(/N=C3/C(=O)Nc4ccccc43)c2)cc1 : 400

// recorded MCC for Cc1c(/N=C2/C(=O)Nc3ccccc32)cccc1/N=C1/C(=O)Nc2ccccc21 : 400

// recorded MCC for O=c1[nH]c(=O)n([C@H]2C[C@H](O)[C@@H](CO)O2)cc1/C=C/Br : 500

// recorded MCC for O=C1Nc2ccccc2/C1=N\c1cccc(Cc2cccc(/N=C3/C(=O)Nc4ccccc43)c2)c1 : 80

The record that follows has no MCC shown yet.
// recorded MCC for CCc1ccc2c(c1)/C(=N/c1c(CC)cc(Cc3cc(CC)c(/N=C4\C(=O)N(CC)c5ccc(CC)cc54)c(CC)c3Cl)c(Cl)c1CC)C(=O)N2CC : 16

====

Hi there, I'd appreciate the recorded MCC for every entry that follows.
assay-text: Cytotoxicity against Homo sapiens (human) HEL cells
Format: cell-based
Answers are plain numbers, in µg/mL.

// recorded MCC for O=C1Nc2ccc(F)cc2/C1=N\c1cccc(Cc2cccc(/N=C3/C(=O)Nc4ccc(F)cc43)c2)c1 : 80

// recorded MCC for Cc1c(/N=C2/C(=O)Nc3ccccc32)cccc1/N=C1/C(=O)Nc2ccccc21 : 400

Please look at the items below and tell me MCC for each one, in order.
1. O=C1Nc2ccc(F)cc2/C1=N/c1ccc(Oc2ccc(/N=C3\C(=O)Nc4ccc(F)cc43)cc2)cc1
2. O=C1Nc2ccccc2/C1=N\c1ccc(Cc2cccc(/N=C3/C(=O)Nc4ccccc43)c2)cc1
3. O=C1Nc2ccccc2/C1=N\c1ccc(Oc2cccc(/N=C3/C(=O)Nc4ccccc43)c2)cc1
4. O=C1Nc2ccccc2/C1=N\c1cccc(Cc2cccc(/N=C3/C(=O)Nc4ccccc43)c2)c1

[8, 80, 400, 80]

Please look at the items below and tell me MCC for each one, in order.
1. O=C1Nc2ccc(F)cc2/C1=N/c1ccc(Cc2ccc(/N=C3\C(=O)Nc4ccc(F)cc43)cc2)cc1
2. O=C1Nc2ccccc2/C1=N/c1ccc(C(=O)c2ccc(/N=C3\C(=O)Nc4ccccc43)cc2)cc1
3. O=C1/C(=N\c2ccc(Oc3ccc(/N=C4\C(=O)N(Cc5ccccc5)c5ccccc54)cc3)cc2)c2ccccc2N1Cc1ccccc1
4. O=C1/C(=N/c2cccc(Cc3cccc(/N=C4/C(=O)N(Cc5ccccc5)c5ccccc54)c3)c2)c2ccccc2N1Cc1ccccc1
5. O=C1/C(=N\c2ccc(Cc3ccc(/N=C4\C(=O)N(Cc5ccccc5)c5ccccc54)cc3)cc2)c2ccccc2N1Cc1ccccc1
6. CCc1ccc2c(c1)/C(=N/c1c(CC)cc(Cc3cc(CC)c(/N=C4\C(=O)N(CC)c5ccc(CC)cc54)c(CC)c3Cl)c(Cl)c1CC)C(=O)N2CC

1: 16; 2: 80; 3: 400; 4: 200; 5: 40; 6: 80

====

Test system: Escherichia coli
assay-text: Antibacterial activity against Escherichia coli CIP 54127
Format: functional
Hi there, I'd appreciate the recorded MIC for every entry that follows.

Check out these entries, answers already filled in.
// recorded MIC for O=C1Nc2ccc(F)cc2/C1=N\c1cccc(Cc2cccc(/N=C3/C(=O)Nc4ccc(F)cc43)c2)c1 : < 50 µg/mL

// recorded MIC for O=C1Nc2ccc(F)cc2/C1=N/c1ccc(Oc2ccc(/N=C3\C(=O)Nc4ccc(F)cc43)cc2)cc1 : < 50 µg/mL

// recorded MIC for O=C1/C(=N\c2ccc(Oc3ccc(/N=C4\C(=O)N(Cc5ccccc5)c5ccccc54)cc3)cc2)c2ccccc2N1Cc1ccccc1 : < 50 µg/mL

// recorded MIC for O=C1Nc2ccc(F)cc2/C1=N/c1ccc(Cc2ccc(/N=C3\C(=O)Nc4ccc(F)cc43)cc2)cc1 : < 50 µg/mL

// recorded MIC for O=C1Nc2ccccc2/C1=N\c1ccc(Oc2cccc(/N=C3/C(=O)Nc4ccccc43)c2)cc1 : < 50 µg/mL

// recorded MIC for CCc1ccc2c(c1)/C(=N/c1c(CC)cc(Cc3cc(CC)c(/N=C4\C(=O)N(CC)c5ccc(CC)cc54)c(CC)c3Cl)c(Cl)c1CC)C(=O)N2CC : < 50 µg/mL

Please look at the items below and tell me MIC for each one, in order.
1. O=C1Nc2ccccc2/C1=N\c1cccc(Cc2cccc(/N=C3/C(=O)Nc4ccccc43)c2)c1
2. O=C1/C(=N/c2cccc(Cc3cccc(/N=C4/C(=O)N(Cc5ccccc5)c5ccccc54)c3)c2)c2ccccc2N1Cc1ccccc1
3. O=C1Nc2ccccc2/C1=N/c1ccc(C(=O)c2ccc(/N=C3\C(=O)Nc4ccccc43)cc2)cc1
4. O=C1Nc2ccccc2/C1=N\c1ccc(Cc2cccc(/N=C3/C(=O)Nc4ccccc43)c2)cc1
5. Cc1c(/N=C2/C(=O)Nc3ccccc32)cccc1/N=C1/C(=O)Nc2ccccc21
6. O=C1/C(=N\c2ccc(Cc3ccc(/N=C4\C(=O)N(Cc5ccccc5)c5ccccc54)cc3)cc2)c2ccccc2N1Cc1ccccc1

["< 50 µg/mL", "< 50 µg/mL", "< 50 µg/mL", "< 50 µg/mL", "< 100 µg/mL", "< 50 µg/mL"]

====

assay-text: Cytotoxicity against Homo sapiens (human) HEL cells
Format: cell-based
measurement-kind: MCC

Check out these entries, answers already filled in.
// recorded MCC for NC(=O)c1ncn([C@@H]2O[C@H](CO)[C@@H](O)[C@H]2O)n1 : > 500 µg/mL

// recorded MCC for O=c1[nH]c(=O)n([C@H]2C[C@H](O)[C@@H](CO)O2)cc1/C=C/Br : > 500 µg/mL

// recorded MCC for Nc1nc2c(ncn2COC(CO)CO)c(=O)[nH]1 : > 100 µg/mL

The record that follows has no MCC shown yet.
// recorded MCC for Nc1nc2c(ncn2COCCO)c(=O)[nH]1 : > 500 µg/mL

Entry source: ChEMBL document CHEMBL3045159
